# assay-procedure: Biodistribution of 99mTc labelled complexes in rats (Tc brain bioassay, Example 64, Table I)
# Type: in vivo, Female Sprague-Dawley rats
# conditions: rat, i.v. tail vein, 30 min post injection
Just a reminder that ties go to false: only Brain % dose strictly below 0.5 % dose counts as true.

compound: C[SH]1c2ccccc2[N]2CC(=O)[N]3CC(C)(C)[S][Tc]321=[O] (stereo not drawn) [Example T729]
qualitative-label: true
//
compound: C#CC[SH]1C(C)(C)C(=O)[N]2CC[N]3c4ccccc4[S][Tc]231=[O] (stereo not drawn) [Example T722]
qualitative-label: false
//
compound: C=CC[SH]1C(C)(C)C(=O)[N]2CC[N]3c4ccccc4[S][Tc]231=[O] (stereo not drawn) [Example T719]
qualitative-label: true
//
compound: CC1(C)C(=O)[N]2CC[N]3c4ccccc4[S][Tc]23(=[O])[SH]1CCO (stereo not drawn) [Example T726]
qualitative-label: true
//
compound: CC1(C)C(=O)[N]2CC[N]3c4ccccc4[S][Tc]23(=[O])[SH]1CCCN (stereo not drawn) [Example T728]
qualitative-label: true
//
compound: C=CC[SH]1C(C)(C)C(=O)[N]2CC[N]3c4ccccc4[S][Tc]231=[O] (stereo not drawn) [Example T721]
qualitative-label: true
//
compound: CCC[SH]1C(C)(C)C(=O)[N]2CC[N]3c4ccccc4[S][Tc]231=[O] (stereo not drawn) [Example T713]
qualitative-label: true
//
compound: C[SH]1c2ccccc2[N]2CC[N]3C(=O)C(C)(C)[S][Tc]321=[O] (stereo not drawn) [Example T712]
qualitative-label: false
//
compound: CC1(C)C(=O)[N]2CC[N]3c4ccccc4[S][Tc]23(=[O])[SH]1CCC#N (stereo not drawn) [Example T731]
qualitative-label: false
//
compound: COC(=O)C[SH]1C(C)(C)C(=O)[N]2CC[N]3c4ccccc4[S][Tc]231=[O] (stereo not drawn) [Example T727]
qualitative-label: true
//
compound: CC1(C)C(=O)[N]2CC[N]3c4ccccc4[S][Tc]23(=[O])[SH]1CCCl (stereo not drawn) [Example T730]
qualitative-label: false
//
compound: CCC[SH]1c2ccccc2[N]2CC[N]3C(=O)C(C)(C)[S][Tc]321=[O] (stereo not drawn) [Example T717]
qualitative-label: false
//
compound: C[SH]1C(C)(C)C(=O)[N]2CC[N]3c4ccccc4[S][Tc]231=[O] (stereo not drawn) [Example T711]
qualitative-label: true
